# maps each entry to its Serum neutral fats
Experiment: Example 1: serum lipids and serum metabolites of mice fed feed supplemented with 0.5% test compound
Assay type: in vivo
Conditions: ratio relative to the non-treated control group, CDF1 mice

- Molecule: "CC(C)CCC[C@@H](C)[C@H]1CC[C@H]2[C@@H]3CC=C4CC(=O)CC[C@]4(C)[C@H]3CC[C@]12C [5-Cholesten-3-one]"
  Serum neutral fats, %: 30
- Molecule: "CC(C)CCC[C@@H](C)[C@H]1CC[C@H]2[C@@H]3CC(O)C4=CC(=O)CC[C@]4(C)[C@H]3CC[C@]12C (stereo partly shown) [6-Hydroxy-4-cholesten-3-one]"
  Serum neutral fats, %: 47
- Molecule: "CC(C)CCC[C@@H](C)[C@H]1CC[C@H]2[C@@H]3CC[C@@H]4CC(=O)CC[C@]4(C)[C@H]3CC[C@]12C [5 β-Cholestan-3-one, 5β-cholestan-3-one]"
  Serum neutral fats, %: 70
- Molecule: "CC(C)CCC[C@@H](C)[C@H]1CC[C@H]2[C@@H]3C[C@@H](Br)C4=CC(=O)CC[C@]4(C)[C@H]3CC[C@]12C [6 β-Bromo-4-cholesten-3-one, 6β-bromo-4-cholesten-3-one]"
  Serum neutral fats, %: 89

====

Experiment: Example 1: body weight, body fat and feed intake of mice fed feed supplemented with 0.5% test compound
Type: in vivo, CDF1 male mice
Details: ratio relative to the non-treated control group, CDF1 mice

- Molecule: "CC(C)CCC[C@@H](C)[C@H]1CC[C@H]2[C@@H]3CCC4=CC(=O)CC[C@]4(C)[C@H]3CC[C@]12C"
  Uom: "%"
  Intraperitoneal fat: 74
- Molecule: "CC(C)CCC[C@@H](C)[C@H]1CC[C@H]2[C@@H]3CC(O)C4=CC(=O)CC[C@]4(C)[C@H]3CC[C@]12C (stereo partly shown) [6-Hydroxy-4-cholesten-3-one]"
  Uom: "%"
  Intraperitoneal fat: 63
- Molecule: "CC(C)CCC[C@@H](C)[C@H]1CC[C@H]2[C@@H]3CC(=O)C4=CC(=O)CC[C@]4(C)[C@H]3CC[C@]12C"
  Uom: "%"
  Intraperitoneal fat: 23
- Molecule: "CC(C)CCC[C@@H](C)[C@H]1CC[C@H]2[C@@H]3C[C@@H](Br)C4=CC(=O)CC[C@]4(C)[C@H]3CC[C@]12C"
  Uom: "%"
  Intraperitoneal fat: 62

====

Assay: Example 1: serum lipids and serum metabolites of mice fed feed supplemented with 0.5% test compound
Format: in vivo
Settings: ratio relative to the non-treated control group, CDF1 mice

- Molecule Smiles: "CC(C)CCC[C@@H](C)[C@H]1CC[C@H]2[C@@H]3C=CC4=CC(=O)CC[C@]4(C)[C@H]3CC[C@]12C"
  Serum neutral fats (%): 60
- Molecule Smiles: "CC(C)CCC[C@@H](C)[C@H]1CC[C@H]2[C@@H]3CCC4=CC(=O)CC[C@]4(C)[C@H]3CC[C@]12C"
  Serum neutral fats (%): 54
- Molecule Smiles: "CC(C)CCC[C@@H](C)[C@H]1CC[C@H]2[C@@H]3CC(=O)C4=CC(=O)CC[C@]4(C)[C@H]3CC[C@]12C"
  Serum neutral fats (%): 36

====

Assay: Example 1: body weight, body fat and feed intake of mice fed feed supplemented with 0.5% test compound
Assay type: in vivo, CDF1 male mice
Settings: ratio relative to the non-treated control group, CDF1 mice
Experimental Readout: Intraperitoneal fat (%)

- Molecule Smiles: "CC(C)CCC[C@@H](C)[C@H]1CC[C@H]2[C@@H]3CC[C@@H]4CC(=O)CC[C@]4(C)[C@H]3CC[C@]12C"
  Experimental Readout: "Intraperitoneal fat"
  Uom: "%"
  Result Number: 71
- Molecule Smiles: "CC(C)CCC[C@@H](C)[C@H]1CC[C@H]2[C@@H]3CC=C4CC(=O)CC[C@]4(C)[C@H]3CC[C@]12C"
  Experimental Readout: "Intraperitoneal fat"
  Uom: "%"
  Result Number: 37
- Molecule Smiles: "CC(C)CCC[C@@H](C)[C@H]1CC[C@H]2[C@@H]3C=CC4=CC(=O)CC[C@]4(C)[C@H]3CC[C@]12C"
  Experimental Readout: "Intraperitoneal fat"
  Uom: "%"
  Result Number: 69

# credit: patent US6531462B2
